species on record: Cavia porcellus; experiment: Selectivity given as ratio of kappa receptor to delta receptor
Short version: Ratio at least 20 is MET, less is NOT MET.

CN1CC[C@]23c4c5ccc(O)c4O[C@H]2c2ncc(-c4ccc(Cl)cc4Cl)cc2C[C@H]3[C@H]1C5 :: MET
CN1CC[C@]23c4c5ccc(O)c4O[C@H]2c2ncc(-c4ccc(Cl)cc4)cc2C[C@H]3[C@H]1C5 :: NOT MET
COc1ccc2c3c1O[C@H]1c4ncc(-c5ccccc5)cc4C[C@@]4(O)[C@@H](C2)N(C)CC[C@]314 :: MET
CN1CC[C@]23c4c5ccc(O)c4O[C@H]2c2ncc(-c4ccccc4)cc2C[C@H]3[C@H]1C5 :: MET
CN1CC[C@]23c4c5ccc(O)c4O[C@H]2c2ncc(-c4ccc(Br)cc4)cc2C[C@@]3(O)[C@H]1C5 :: MET
COc1ccc2c3c1O[C@H]1c4ncc(-c5ccc(Br)cc5)cc4C[C@@]4(O)[C@@H](C2)N(C)CC[C@]314 :: MET
Oc1ccc2c3c1O[C@H]1c4ncccc4C[C@@]4(O)[C@@H](C2)N(CC2CC2)CC[C@]314 :: NOT MET
CN1CC[C@]23c4c5ccc(O)c4O[C@H]2c2ncc(-c4ccc(Br)cc4)cc2C[C@H]3[C@H]1C5 :: NOT MET
CN1CC[C@]23c4c5ccc(O)c4O[C@H]2c2ncccc2C[C@H]3[C@H]1C5 :: NOT MET
CN1CC[C@]23c4c5ccc(O)c4O[C@H]2c2ncc(-c4ccccc4)cc2C[C@@]3(O)[C@H]1C5 :: MET
CN1CC[C@]23c4c5ccc(O)c4O[C@H]2c2ncccc2C[C@@]3(O)[C@H]1C5 :: NOT MET

###

biological target: UniProt:P97266; assay: Apparent binding affinity of compound was determined by antagonism towards Opioid receptor mu 1 in [35S]GTP-gamma-S, binding assay in guinea pig caudate; format: functional
pKi: −log10 of the molar value.
quantityMeasured: pKi

CN1CC[C@]23c4c5ccc(O)c4O[C@H]2c2ncc(-c4ccc(Cl)cc4Cl)cc2C[C@H]3[C@H]1C5 :: < 6.00
CN1CC[C@]23c4c5ccc(O)c4O[C@H]2c2ncccc2C[C@@]3(O)[C@H]1C5 :: < 6.00
CN1CC[C@]23c4c5ccc(O)c4O[C@H]2c2ncccc2C[C@H]3[C@H]1C5 :: < 6.00
Oc1ccc2c3c1O[C@H]1c4ncc(-c5ccc(Cl)cc5)cc4C[C@H]4[C@@H](C2)N(CC2CC2)CC[C@]314 :: 8.04
CN1CC[C@]23c4c5ccc(O)c4O[C@H]2c2ncc(-c4ccccc4)cc2C[C@@]3(O)[C@H]1C5 :: < 6.00
CN1CC[C@]23c4c5ccc(O)c4O[C@H]2c2ncc(-c4ccccc4)cc2C[C@H]3[C@H]1C5 :: < 6.00
CN1CC[C@]23c4c5ccc(O)c4O[C@H]2c2ncc(-c4ccc(Br)cc4)cc2C[C@H]3[C@H]1C5 :: < 6.00
CN1CC[C@]23c4c5ccc(O)c4O[C@H]2c2ncc(-c4ccc(Cl)c(Cl)c4)cc2C[C@H]3[C@H]1C5 :: < 6.00
Oc1ccc2c3c1O[C@H]1c4ncc(-c5ccc(Cl)cc5)cc4C[C@@]4(O)[C@@H](C2)N(CC2CC2)CC[C@]314 :: 8.11

###

molecular target: UniProtKB P97266; assay: Antagonism of compound towards Opioid receptor mu 1 was determined using PL-017 in guinea pig ileum (GPI) smooth muscle contraction assays; d = agonist effect was observed; assay type: functional, tissue-based
pEC50: −log10 of the molar value.
quantityMeasured: pEC50

CN1CC[C@]23c4c5ccc(O)c4O[C@H]2c2ncc(-c4ccccc4)cc2C[C@H]3[C@H]1C5 :: 5.99

###

Some compounds, each annotated with its measured Ki.
molecular target: Kappa-type opioid receptor (Cavia porcellus); experiment: Binding affinity at Opioid receptor kappa 1 by displacement of [3H]U-69593 in guinea pig brain membranes; assay type: cell membranes, Membrane
Sequence (P41144 whole entry): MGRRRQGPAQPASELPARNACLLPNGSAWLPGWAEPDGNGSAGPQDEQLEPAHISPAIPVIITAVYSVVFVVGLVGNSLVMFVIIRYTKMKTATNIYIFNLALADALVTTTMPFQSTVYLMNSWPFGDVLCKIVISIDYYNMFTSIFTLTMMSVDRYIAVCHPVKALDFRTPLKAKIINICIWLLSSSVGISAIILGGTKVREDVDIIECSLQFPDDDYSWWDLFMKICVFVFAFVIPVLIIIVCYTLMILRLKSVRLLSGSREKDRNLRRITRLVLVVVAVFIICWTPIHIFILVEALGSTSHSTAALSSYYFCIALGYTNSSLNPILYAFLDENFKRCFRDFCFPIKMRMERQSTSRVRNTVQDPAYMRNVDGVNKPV
quantityMeasured: Ki (µM)

C[C@@H](NC(=O)[C@@H](N)Cc1ccc(O)cc1)C(=O)NCC(=O)N(C)[C@@H](Cc1ccccc1)C(=O)NCCO [DAMGO] :: 5.82
COc1ccc2c3c1O[C@H]1c4ncc(-c5ccc(Br)cc5)cc4C[C@@]4(O)[C@@H](C2)N(C)CC[C@]314 :: 7.37
CN1CC[C@]23c4c5ccc(O)c4O[C@H]2c2ncc(-c4ccc(Br)cc4)cc2C[C@@]3(O)[C@H]1C5 :: 0.432
Oc1ccc2c3c1O[C@H]1c4[nH]c5ccccc5c4C[C@@]4(O)[C@@H](C2)N(CC2CC2)CC[C@]314 [NALTRINDOLE] :: 0.075
C=CCN1C[C@H](C)N([C@H](c2ccc(C(=O)N(CC)CC)cc2)c2cccc(OC)c2)C[C@H]1C [SNC-80] :: 8.76

###

molecular target: Opioid receptors; mu & delta (Rattus norvegicus) (UniProt P33533+P33535); assay: Selectivity given as ratio of mu receptor to delta receptor; type: protein assay
Sequence (P33533 whole entry, looked up): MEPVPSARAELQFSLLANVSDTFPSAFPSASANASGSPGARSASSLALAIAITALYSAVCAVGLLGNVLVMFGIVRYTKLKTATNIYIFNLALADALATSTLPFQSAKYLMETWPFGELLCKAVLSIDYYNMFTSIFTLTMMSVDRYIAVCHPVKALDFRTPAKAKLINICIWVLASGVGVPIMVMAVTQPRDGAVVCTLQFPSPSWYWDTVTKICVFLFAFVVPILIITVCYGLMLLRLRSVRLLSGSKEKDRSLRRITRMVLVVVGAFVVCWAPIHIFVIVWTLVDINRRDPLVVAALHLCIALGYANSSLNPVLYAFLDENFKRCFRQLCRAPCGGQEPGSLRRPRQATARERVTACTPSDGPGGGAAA
Sequence (P33535 whole entry, looked up): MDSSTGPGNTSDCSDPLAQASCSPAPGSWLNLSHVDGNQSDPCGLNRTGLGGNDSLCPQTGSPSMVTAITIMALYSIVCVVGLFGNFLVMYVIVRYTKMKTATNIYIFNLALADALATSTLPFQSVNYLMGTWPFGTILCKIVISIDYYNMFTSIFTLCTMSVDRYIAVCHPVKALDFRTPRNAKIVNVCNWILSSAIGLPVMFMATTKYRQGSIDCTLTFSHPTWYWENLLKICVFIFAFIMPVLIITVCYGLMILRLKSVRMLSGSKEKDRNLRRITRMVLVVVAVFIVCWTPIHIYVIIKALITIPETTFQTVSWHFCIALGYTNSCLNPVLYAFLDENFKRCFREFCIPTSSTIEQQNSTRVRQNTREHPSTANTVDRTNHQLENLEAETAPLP
Some compounds, each annotated with its measured Ratio.
quantityMeasured: Ratio

COc1ccc2c3c1O[C@H]1c4ncc(-c5ccc(Br)cc5)cc4C[C@@]4(O)[C@@H](C2)N(C)CC[C@]314 :: 82
CN1CC[C@]23c4c5ccc(O)c4O[C@H]2c2ncc(-c4ccc(Cl)cc4)cc2C[C@H]3[C@H]1C5 :: 34
Oc1ccc2c3c1O[C@H]1c4ncc(-c5ccccc5)cc4C[C@@]4(O)[C@@H](C2)N(CC2CC2)CC[C@]314 :: 16
CN1CC[C@]23c4c5ccc(O)c4O[C@H]2c2ncc(-c4ccc(Br)cc4)cc2C[C@@]3(O)[C@H]1C5 :: 49
Oc1ccc2c3c1O[C@H]1c4ncc(-c5ccc(Cl)cc5)cc4C[C@H]4[C@@H](C2)N(CC2CC2)CC[C@]314 :: 24
CN1CC[C@]23c4c5ccc(O)c4O[C@H]2c2ncccc2C[C@@]3(O)[C@H]1C5 :: 0.4
CN1CC[C@]23c4c5ccc(O)c4O[C@H]2c2ncc(-c4ccc(Cl)cc4Cl)cc2C[C@H]3[C@H]1C5 :: 88
CN1CC[C@]23c4c5ccc(O)c4O[C@H]2c2ncc(-c4ccccc4)cc2C[C@@]3(O)[C@H]1C5 :: 9
CN1CC[C@]23c4c5ccc(O)c4O[C@H]2c2ncc(-c4ccccc4)cc2C[C@H]3[C@H]1C5 :: 13
CN1CC[C@]23c4c5ccc(O)c4O[C@H]2c2ncc(-c4ccc(Cl)c(Cl)c4)cc2C[C@H]3[C@H]1C5 :: 25
CN1CC[C@]23c4c5ccc(O)c4O[C@H]2c2ncccc2C[C@H]3[C@H]1C5 :: 1.6
Oc1ccc2c3c1O[C@H]1c4ncccc4C[C@@]4(O)[C@@H](C2)N(CC2CC2)CC[C@]314 :: 1.9
CN1CC[C@]23c4c5ccc(O)c4O[C@H]2c2ncc(-c4ccc(Cl)cc4)cc2C[C@@]3(O)[C@H]1C5 :: 59
COc1ccc2c3c1O[C@H]1c4ncc(-c5ccccc5)cc4C[C@@]4(O)[C@@H](C2)N(C)CC[C@]314 :: 26
CN1CC[C@]23c4c5ccc(O)c4O[C@H]2c2ncc(-c4ccc(Br)cc4)cc2C[C@H]3[C@H]1C5 :: 40

###

target: Mu-type opioid receptor (Cavia porcellus, UniProt P97266); assay: Agonistic activity towards Opioid receptor mu 1 was determined in [35S]GTP-gamma-S, binding assay in guinea pig caudate; assay type: functional; settings: read-out: EC50
Sequence (P97266 whole entry): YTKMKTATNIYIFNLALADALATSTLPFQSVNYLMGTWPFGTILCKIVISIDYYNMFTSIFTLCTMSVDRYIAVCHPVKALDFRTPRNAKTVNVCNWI
pEC50: −log10 of the molar value.
Some compounds, each annotated with its measured pEC50.
quantityMeasured: pEC50

CN1CC[C@]23c4c5ccc(O)c4O[C@H]2c2ncc(-c4ccccc4)cc2C[C@@]3(O)[C@H]1C5 :: 6.18
CN1CC[C@]23c4c5ccc(O)c4O[C@H]2c2ncccc2C[C@@]3(O)[C@H]1C5 :: 5.52
CN1CC[C@]23c4c5ccc(O)c4O[C@H]2c2ncccc2C[C@H]3[C@H]1C5 :: 5.52

###

Some molecules, each annotated with its measured IC50.
target: Mu-type opioid receptor (Cavia porcellus, UniProt P97266); assay: Inhibitory concentration for inhibition of Opioid receptor mu 1 induced contractions in guinea pig ileum (GPI) smooth muscle assays
Square brackets hold non-standard residues; d marks the D form. Peptide text beside a SMILES is read from it. NMeF = CN[C@@H](Cc1ccccc1)C(=O)O
quantityMeasured: IC50 (nM)

CN1CC[C@]23c4c5ccc(O)c4O[C@H]2c2ncccc2C[C@H]3[C@H]1C5 :: 67.7
Oc1ccc2c3c1O[C@H]1c4ncc(-c5ccc(Cl)cc5)cc4C[C@@]4(O)[C@@H](C2)N(CC2CC2)CC[C@]314 :: 163
Oc1ccc2c3c1O[C@H]1c4ncc(-c5ccc(Cl)cc5)cc4C[C@H]4[C@@H](C2)N(CC2CC2)CC[C@]314 :: 109
CN1CC[C@]23c4c5ccc(O)c4O[C@H]2c2ncc(-c4ccc(Br)cc4)cc2C[C@H]3[C@H]1C5 :: 666
CN1CC[C@]23c4c5ccc(O)c4O[C@H]2c2ncc(-c4ccc(Cl)cc4Cl)cc2C[C@H]3[C@H]1C5 :: 724
CN(C(=O)[C@@H]1CCCN1C(=O)[C@@H](N)Cc1ccc(O)cc1)[C@@H](Cc1ccccc1)C(=O)N1CCC[C@@H]1C(N)=O (H-YP[NMeF][dP]-NH2) :: 59.4
CN1CC[C@]23c4c5ccc(O)c4O[C@H]2c2ncc(-c4ccc(Cl)cc4)cc2C[C@H]3[C@H]1C5 :: 177
CN1CC[C@]23c4c5ccc(O)c4O[C@H]2c2ncccc2C[C@@]3(O)[C@H]1C5 :: 523
CN1CC[C@]23c4c5ccc(O)c4O[C@H]2c2ncc(-c4ccc(Cl)c(Cl)c4)cc2C[C@H]3[C@H]1C5 :: 447
CN1CC[C@]23c4c5ccc(O)c4O[C@H]2c2ncc(-c4ccccc4)cc2C[C@H]3[C@H]1C5 :: 98.7
CN1CC[C@]23c4c5ccc(O)c4O[C@H]2c2ncc(-c4ccccc4)cc2C[C@@]3(O)[C@H]1C5 :: 211
